biological target: human PAI-1, active, wild-type, non-glycosylated (E. coli-derived) (human, UniProt P05121 24-402); test: cell-based or functional assay
Sequence (P05121 24-402): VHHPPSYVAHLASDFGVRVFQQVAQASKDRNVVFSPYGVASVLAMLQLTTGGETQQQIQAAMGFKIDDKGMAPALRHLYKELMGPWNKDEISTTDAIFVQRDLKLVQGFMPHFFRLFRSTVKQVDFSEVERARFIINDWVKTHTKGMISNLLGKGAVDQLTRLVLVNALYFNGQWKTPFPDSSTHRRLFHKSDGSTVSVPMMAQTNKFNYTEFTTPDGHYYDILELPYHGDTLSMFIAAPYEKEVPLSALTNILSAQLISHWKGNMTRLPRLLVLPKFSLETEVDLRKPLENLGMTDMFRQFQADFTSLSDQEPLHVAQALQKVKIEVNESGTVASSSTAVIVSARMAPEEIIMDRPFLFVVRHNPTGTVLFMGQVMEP
Experimental Readout: IC50 HT-1080 Exo PAI-1

Query: I'd like to know its IC50 HT-1080 Exo PAI-1. The binder in question is Antibody 27, scFv (scFv, V domains shown) VH: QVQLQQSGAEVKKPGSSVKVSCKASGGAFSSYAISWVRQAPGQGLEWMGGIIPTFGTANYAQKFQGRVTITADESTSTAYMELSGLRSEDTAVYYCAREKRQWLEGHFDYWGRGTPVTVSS VL: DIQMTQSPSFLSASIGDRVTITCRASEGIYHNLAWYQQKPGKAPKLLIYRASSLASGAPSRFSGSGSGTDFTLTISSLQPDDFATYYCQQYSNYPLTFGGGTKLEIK
Reply: 18.8 nM

Query: What value of IC50 HT-1080 Exo PAI-1 has been reported for the following binder? Antibody 15, scFv (scFv, V domains shown) VH: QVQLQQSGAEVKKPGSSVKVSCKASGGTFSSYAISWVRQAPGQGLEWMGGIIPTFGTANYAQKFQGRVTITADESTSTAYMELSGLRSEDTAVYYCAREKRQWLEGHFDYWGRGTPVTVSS VL: DIQMAQSPSFLSASIGDRVTITCRASEGIYHNLAWYQQKPGKAPKLLIYRASSLASGAPSRFSGSGSGTDFTLTISSLQPDDFATYYCQQYSNYPLTFGGGTKLEIR
Reply: 36 nM
